The following molecules are shown together with reported AC50 values.
# assayed-system: CAAX prenyl protease 2 (Saccharomyces cerevisiae S288c, UniProt Q03530)
# Sequence (Q03530 whole entry): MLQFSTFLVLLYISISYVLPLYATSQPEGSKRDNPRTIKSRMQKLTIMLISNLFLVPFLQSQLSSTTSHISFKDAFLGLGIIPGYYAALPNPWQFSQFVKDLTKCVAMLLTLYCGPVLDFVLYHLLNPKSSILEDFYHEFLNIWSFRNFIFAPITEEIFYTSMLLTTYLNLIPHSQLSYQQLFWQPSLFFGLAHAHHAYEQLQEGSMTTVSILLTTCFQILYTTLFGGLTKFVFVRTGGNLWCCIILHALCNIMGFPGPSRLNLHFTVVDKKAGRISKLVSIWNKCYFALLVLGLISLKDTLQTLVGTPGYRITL
# Assay type: biochemical
Calls of active or inactive are those of the source.

> print(dat)
                                   molecule                            assayed.system  assay.endpoint   recorded.result
1  CCN(CC)CCCNC(=O)c1cc2c(-c3cccc(OC)c3)nn(C)c2s1  CAAX prenyl protease 2 (Saccharomyces cerevisiae S288c, UniProt Q03530)            AC50  77.8 µM (active)
2           O=C(Nc1ccc2c(c1)CCC2)c1ccccc1Br  CAAX prenyl protease 2 (Saccharomyces cerevisiae S288c, UniProt Q03530)            AC50  8.42 µM (active)
3  Cc1nc(N2CCCCC2)c2c(C)c(C(=O)Nc3ccccc3C(F)(F)F)sc2n1  CAAX prenyl protease 2 (Saccharomyces cerevisiae S288c, UniProt Q03530)            AC50  13.4 µM (active)

Asked: // Input: O=C1CSC(c2cn(-c3ccccc3)nc2-c2cc3ccccc3oc2=O)N1Cc1ccco1 (centres undefined) . Output its AC50 only.
Given back: 30.8 µM (active)

* * *

# assayed-system: Fatty acid synthase (Homo sapiens, UniProt P49327)
# Sequence (P49327 whole entry): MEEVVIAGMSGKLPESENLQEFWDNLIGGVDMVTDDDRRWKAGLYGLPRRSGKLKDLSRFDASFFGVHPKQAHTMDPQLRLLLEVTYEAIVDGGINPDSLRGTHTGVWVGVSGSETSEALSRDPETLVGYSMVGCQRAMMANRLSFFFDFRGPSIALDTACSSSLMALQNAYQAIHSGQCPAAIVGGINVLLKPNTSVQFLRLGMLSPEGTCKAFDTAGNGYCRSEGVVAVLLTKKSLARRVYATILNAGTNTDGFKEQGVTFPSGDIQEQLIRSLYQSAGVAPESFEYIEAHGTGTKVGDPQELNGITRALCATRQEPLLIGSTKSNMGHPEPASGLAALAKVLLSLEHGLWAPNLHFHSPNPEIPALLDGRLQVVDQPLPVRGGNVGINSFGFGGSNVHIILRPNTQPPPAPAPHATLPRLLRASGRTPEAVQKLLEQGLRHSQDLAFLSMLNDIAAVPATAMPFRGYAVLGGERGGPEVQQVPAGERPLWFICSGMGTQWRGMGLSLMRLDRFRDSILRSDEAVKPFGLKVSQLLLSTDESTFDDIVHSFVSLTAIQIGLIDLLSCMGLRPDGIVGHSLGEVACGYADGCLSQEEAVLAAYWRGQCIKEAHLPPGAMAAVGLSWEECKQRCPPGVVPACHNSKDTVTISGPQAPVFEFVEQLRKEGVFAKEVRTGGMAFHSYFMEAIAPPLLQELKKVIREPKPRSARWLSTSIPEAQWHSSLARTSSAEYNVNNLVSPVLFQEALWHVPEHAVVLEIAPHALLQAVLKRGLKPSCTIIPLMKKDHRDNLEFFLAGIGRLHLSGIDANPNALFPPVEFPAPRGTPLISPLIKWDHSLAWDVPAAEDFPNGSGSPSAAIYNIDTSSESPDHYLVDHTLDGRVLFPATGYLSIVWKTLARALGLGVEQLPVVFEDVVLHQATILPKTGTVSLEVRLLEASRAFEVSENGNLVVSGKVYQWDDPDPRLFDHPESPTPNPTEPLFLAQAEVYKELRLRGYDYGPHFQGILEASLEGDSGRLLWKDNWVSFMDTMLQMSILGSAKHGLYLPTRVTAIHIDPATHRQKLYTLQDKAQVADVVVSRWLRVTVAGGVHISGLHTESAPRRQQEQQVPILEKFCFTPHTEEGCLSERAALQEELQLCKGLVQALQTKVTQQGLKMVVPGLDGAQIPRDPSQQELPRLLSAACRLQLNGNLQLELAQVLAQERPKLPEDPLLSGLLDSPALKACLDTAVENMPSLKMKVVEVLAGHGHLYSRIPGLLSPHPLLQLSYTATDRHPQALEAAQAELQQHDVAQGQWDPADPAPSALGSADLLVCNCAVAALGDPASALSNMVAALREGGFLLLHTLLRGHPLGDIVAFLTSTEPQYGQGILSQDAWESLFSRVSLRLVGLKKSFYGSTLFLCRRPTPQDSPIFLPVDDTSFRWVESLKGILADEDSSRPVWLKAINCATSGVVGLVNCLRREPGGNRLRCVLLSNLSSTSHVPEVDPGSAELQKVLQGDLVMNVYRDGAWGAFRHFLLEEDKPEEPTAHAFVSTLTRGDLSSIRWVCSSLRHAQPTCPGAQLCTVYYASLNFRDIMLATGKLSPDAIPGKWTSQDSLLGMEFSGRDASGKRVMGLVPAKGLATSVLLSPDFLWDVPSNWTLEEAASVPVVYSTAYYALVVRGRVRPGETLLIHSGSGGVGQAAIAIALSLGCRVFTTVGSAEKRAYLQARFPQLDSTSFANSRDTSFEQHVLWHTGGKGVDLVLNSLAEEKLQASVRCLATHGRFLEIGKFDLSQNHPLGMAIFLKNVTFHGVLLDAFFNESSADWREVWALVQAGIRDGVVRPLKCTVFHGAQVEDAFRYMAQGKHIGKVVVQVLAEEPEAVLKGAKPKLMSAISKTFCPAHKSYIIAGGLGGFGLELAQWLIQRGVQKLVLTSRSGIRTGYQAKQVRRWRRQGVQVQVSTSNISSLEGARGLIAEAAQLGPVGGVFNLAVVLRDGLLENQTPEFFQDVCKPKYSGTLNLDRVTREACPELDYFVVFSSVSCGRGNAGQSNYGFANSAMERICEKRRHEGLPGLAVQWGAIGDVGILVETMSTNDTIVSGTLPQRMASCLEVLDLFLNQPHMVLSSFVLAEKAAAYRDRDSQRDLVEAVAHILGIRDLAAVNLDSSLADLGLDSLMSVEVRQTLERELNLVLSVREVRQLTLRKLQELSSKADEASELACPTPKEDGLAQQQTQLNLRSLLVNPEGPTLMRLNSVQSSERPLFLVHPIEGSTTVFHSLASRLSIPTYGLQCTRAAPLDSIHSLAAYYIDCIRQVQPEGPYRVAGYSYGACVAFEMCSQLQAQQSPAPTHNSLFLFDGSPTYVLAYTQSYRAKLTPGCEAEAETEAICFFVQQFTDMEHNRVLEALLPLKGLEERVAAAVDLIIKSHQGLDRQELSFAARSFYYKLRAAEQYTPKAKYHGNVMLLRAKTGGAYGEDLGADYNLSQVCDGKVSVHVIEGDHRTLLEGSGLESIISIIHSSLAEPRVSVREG
# experiment-description: inhibition of human FAS-TE enzyme activity – biochemical, kinetic fluorescence intensity, dose response (AID 624326);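 also: rate of fluorescence rise from hydrolysis of a fluorogenic O-methyl fluorescein ester substrate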
# Format: functional
The source made the active and inactive calls.
assay-endpoint: IC50

Sample records with IC50:
> print(dat)
                                   compound    recorded.result
1  Cn1c(=O)c2cc3c(nc2n(C)c1=O)CC(c1ccccc1)CC3=O (stereo unspecified)   14.5 µM (active)
2  COc1ccc(CNC(=O)CC2C[C@H](C(=O)N3CCOCC3)[C@@]3(CCC4CCCC4)c4[nH]c5ccccc5c4CCN3C2=O)cc1OC (stereo partly specified)   4.73 µM (active)
3  CC(C)c1ccc(/C=N/Nc2cc(N3CCOCC3)nc(N3CCOCC3)n2)cc1  0.379 µM (active)

Asked: // Input: "Cc1nnc(Sc2cc(NCCCO)c([N+](=O)[O-])c3nonc23)s1" . Output its IC50 only.
Given back: 3.99 µM (active)

Asked: // Input: "Cc1ccc(NC(=O)c2cc(S(=O)(=O)N(C)C)ccc2N2CCCC2)cc1F" . Output its IC50 only.
Given back: 6.47 µM (active)

Asked: // Input: "CCOc1ccccc1NC(=O)c1nc(S(=O)(=O)Cc2ccccc2)ncc1Cl" . Output its IC50 only.
Given back: 7.5 µM (active)

* * *

# assayed-system: DNA dC->dU-editing enzyme APOBEC-3G (Homo sapiens, UniProt Q9HC16);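 also: Dose-response counterscreen measuring inhibition of APOBEC3G DNA deaminase activity, run while confirming APOBEC3A inhibitors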
# Sequence (Q9HC16 whole entry): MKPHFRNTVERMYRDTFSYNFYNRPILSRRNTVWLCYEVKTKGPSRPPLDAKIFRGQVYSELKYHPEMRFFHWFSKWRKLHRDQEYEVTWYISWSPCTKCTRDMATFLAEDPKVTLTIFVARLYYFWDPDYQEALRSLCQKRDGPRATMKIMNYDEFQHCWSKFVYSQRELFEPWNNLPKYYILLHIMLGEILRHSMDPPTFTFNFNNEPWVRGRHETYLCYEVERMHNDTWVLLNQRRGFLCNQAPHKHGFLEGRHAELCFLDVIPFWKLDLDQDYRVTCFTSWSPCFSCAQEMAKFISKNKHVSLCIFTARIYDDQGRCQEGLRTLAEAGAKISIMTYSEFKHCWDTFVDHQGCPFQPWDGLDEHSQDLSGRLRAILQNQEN
# Type: functional
Calls of active or inactive are those of the source.
assay-endpoint: IC50

> print(dat)
                           substance.smiles  assay.endpoint   recorded.result
1  CCc1ccc(/C=C/c2c[nH]c3ccccc23)[n+](CC)c1            IC50  2.24 µM (active)
2  CN1CCN(S(=O)(=O)c2cccc(C(=O)N3CCN(c4ccccc4F)CC3)c2)CC1            IC50  19.2 µM (active)
3       CCn1nc(NC(=O)COC)c2cc3cc(C)ccc3nc21            IC50   6.5 µM (active)
4           CC1=CC(C)(C)[N+](C)(C)c2ccccc21            IC50  2.98 µM (active)

Proceeding to the next compound to report its IC50.
Asked: // Input: "CC1(C)CC(N2CCCCC2)=CC(=[N+]2CCCCC2)C1" . Output its IC50 only.
Given back: 4.57 µM (active)

Every entry's value here was drawn from ChEMBL document CHEMBL1201862.
